Test system: Lefty1
Test: Lefty1 binders on small-molecule microarrays, primary screen, biochemical, small-molecule microarray, 635/667 nm fluorescence (AID 1139)
Run Conditions: small-molecule microarray binding, fluorescence 635/667; higher = more signal
The label depends only on composite z-score: true if it is at least 0.4, false if it is smaller.

Form field: composite z-score at least 0.4? Entry: CCOC(=O)C[C@H]1[C@H](OC(=O)c2cc3ccccc3oc2=O)[C@@H](NC(=O)Cc2ccc(OC)cc2)c2cc(OCCCO)ccc2N1C(=O)Cc1ccc(OC)cc1
true

Does C=CCN1C(=O)[C@]2(O[C@H](CCO)[C@@H]([Si](C)(C)c3ccc(OC)cc3)[C@@H]2C)c2cc(N3C(=O)c4ccccc4Oc4ccccc43)ccc21 have a reported composite z-score of at least 0.4?
true

Kindly determine if composite z-score recorded for Cc1ccc(S[C@]2(C(=O)NCc3ccccc3)CC(=O)N(Cc3ccccc3Cl)[C@@H]2c2ccc(CO)cc2)cc1 is above or exactly 0.4.
false

hey, is composite z-score for this one >= 0.4? CC(C)(C)OC(=O)CC[C@]1(C(=O)N2CCOCC2)COC(c2ccc(OCCCO)cc2)=N1
false

Evaluate CCOC(=O)C[C@H]1[C@H](OC(=O)Cc2ccc3c(c2)OCO3)[C@@H](NC(=O)CC(C)C)c2cc(OCCCO)ccc2N1C(=O)c1ccc2ccccc2n1 : composite z-score at minimum 0.4?
true

Could you tell me if the measured composite z-score of CCOC(=O)C1=CCC(c2cccn2C(=O)OC(C)(C)C)N(S(=O)(=O)c2ccc(C)cc2)C1 (configuration not stated) reaches 0.4 or more?
true

Say whether COC(=O)Cn1c(C(=O)N(C)C)cc2c1C[C@H]1CN(C(=O)c3ccccc3)[C@@](Cc3ccccc3)(C(=O)OC)[C@@H]21 shows composite z-score of 0.4 or more.
false

* * *

Test: HepG2 cell viability effects, profiling panel, calcein-AM fluorescence, 48 h, basal (AID 1164); also: test concentration not given here
Run Conditions: higher = more signal
Label scheme for z-score: bin 1 = under -0.2, bin 2 = from -0.2 up to 0.2, bin 3 = 0.2 and over

State the class of the compound shown: CC(C)c1ccc(NN2C(C(O)C3=C[C@H]4C[C@@H](C3)C4(C)C)C=CC3C(=O)N(c4ccccc4)C(=O)C32)cc1 (stereo partly drawn)
bin 2

Lab note: sort C=C(COC)C(=O)CC[C@@H](OC(=O)c1ccccc1-c1ccccc1C(=O)O)c1ccccc1OCCO into the matching z-score band.
bin 1

Could you tell me which band C=C(/C=C\CNS(=O)(=O)c1ccc(C)cc1)[C@H](O)[C@H]1CCCN1S(=O)(=O)c1ccccc1[N+](=O)[O-] belongs to?
bin 1

# bin label for CCCC1(C(=O)OC)C=C2C(=C(C(C)C)C(=O)C2C)CN1 (stereo not drawn)
bin 2

Looking at C=C1C(=O)C=C2CN(C(=O)c3ccccc3)[C@@](Cc3ccc(F)cc3)(C(=O)OC)[C@@H]12 , which class would you pick?
bin 1

Into which category would you place COCCOC(=O)N1C(=O)[C@@]2(c3cc(C#CCNC(N)=O)ccc31)[C@H](C(N)=O)[C@H]1C(=O)O[C@H](c3ccccc3)[C@H](c3ccccc3)N1[C@@H]2c1ccc(O)cc1 ?
bin 3

Form: Item = COC(=O)C(CC#Cc1ccc2c(c1)[C@]1(C(=O)N2)[C@H](C(=O)N2CCCCCCC2)[C@H]2C(=O)O[C@H](c3ccccc3)[C@H](c3ccccc3)N2[C@@H]1c1ccc(OCCO)cc1)C(=O)OC ; Class = ?
bin 2

Classify this compound: C=CCNC(=O)[C@H]1[C@@H]2C(=O)O[C@@H](c3ccccc3)[C@@H](c3ccccc3)N2[C@@H](c2ccc(OCCO)cc2)[C@]12C(=O)N(C(=O)OCCOC)c1ccc(C#CCC(C(=O)OC)C(=O)OC)cc12
bin 3

Assign a bin to COC(=O)[C@@]1(Cc2ccccc2)[C@H]2c3cc(C(=O)N(C)C)n(Cc4ccc(Cl)c(C(F)(F)F)c4)c3C[C@H]2CN1C(=O)c1ccccc1
bin 1

Which z-score band matches O=C1O[C@H](c2ccccc2)[C@H](c2ccccc2)N2[C@H]1[C@@H](C(=O)N1CCCCCCC1)[C@]1(C(=O)Nc3ccc(C#CCCO)cc31)[C@H]2c1ccc(O)cc1 ?
bin 3

Entry COc1ccc(C#Cc2ccc3c(c2)[C@]2(C(=O)N3)[C@H](c3ccccc3OCCO)N3[C@H](c4ccccc4)[C@H](c4ccccc4)OC(=O)[C@H]3[C@@H]2C(=O)NC[C@H](O)c2ccccc2)cc1 belongs to which category?
bin 1

Which bin, given its z-score, does CCCCC(=C=CC[C@H](O)c1cccc(OCCO)c1)C[C@H](O)c1cc(Cl)cc(Cl)c1O occupy?
bin 3

Hey, which category is C[N+](C)(C)CCCC[C@@H]1NC(=O)[C@H]2C[C@@H](C(=O)NCCCCCN)[C@@H](c3ccc(O)cc3)N2C1=O in, do you know?
bin 1
